MEASUREMENT_DESCRIPTION: Plasmodium falciparum growth inhibition, primary screen, strain 3D7, DAPI fluorescence, 100 nL (AID 1184);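 further: parasites grown inside human red blood cells in medium with human serum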
CONDITIONS: P. falciparum 3D7 growth, 3 d, higher = more signal
Decision: z-score >= -1 yields Criterion met, all other cases yield Criterion not met.

| COMPOUND | LABEL_CLASS |
| --- | --- |
| CCN(CC)c1ccc(N2CC=CC34O[C@@H]5/C=C\CCCOC(=O)C5[C@H]3C(=O)N(C(CO)C(C)C)[C@@H]4C2=O)cc1 (some centres undefined) | Criterion met |

Input: Decide: z-score of Cc1ccc([C@H]2C(C(=O)O)=C[C@@H](C)N2S(=O)(=O)c2ccc(C)cc2)cc1 >= -1?
Output: Criterion met

Input: Could you tell me if the measured z-score of O=C1OCCC=C[C@H]2OC34C=CCN(Cc5ccccc5)C(=O)[C@H]3N(CCCCCO)C(=O)[C@@H]4C12 (some centres undefined) reaches -1 or more?
Output: Criterion met

Input: Hi, just wondering whether CCOC(=O)C[C@H]1[C@H](OC(=O)c2ccccc2-c2ccccc2)[C@@H](NC(=O)c2ccc3ccccc3c2)c2cc(OCCCO)ccc2N1C(=O)c1ccc2ccccc2n1 shows z-score of -1 or higher.
Output: Criterion met

Input: Threshold query (z-score >= -1) on C=CC[C@@]1(C(=O)N2CCOCC2)N=C(c2ccc(OCCCO)cc2)O[C@@H]1c1ccccc1N=[N+]=[N-]
Output: Criterion not met

Input: Please check the record COc1ccc([Si](C)(C)[C@@H]2[C@@H](CC(=O)N(CCO)Cc3ccccc3)O[C@]3(C(=O)N(C)c4ccccc43)[C@H]2C)cc1 and state if its z-score is at or above -1.
Output: Criterion not met

Input: Is reported z-score greater than or equal to -1 here: CC1=C2[C@@H](CCc3ccccc3)OB(O)C[C@@H]2n2c(=O)n(-c3ccccc3)c(=O)n2C1
Output: Criterion met

* * *

TGT: Fibroblast growth factor 10 (Homo sapiens) (UniProt O15520)
Sequence (O15520 whole entry, looked up): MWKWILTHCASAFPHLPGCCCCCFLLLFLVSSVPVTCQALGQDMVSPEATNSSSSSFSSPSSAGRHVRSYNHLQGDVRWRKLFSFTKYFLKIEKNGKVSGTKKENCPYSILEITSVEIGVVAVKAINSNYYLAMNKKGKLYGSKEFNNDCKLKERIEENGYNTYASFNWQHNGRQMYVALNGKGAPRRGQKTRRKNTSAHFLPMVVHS
MEASUREMENT_DESCRIPTION: FGF10 binders on small-molecule microarrays, primary screen, biochemical, small-molecule microarray, 635 nm fluorescence (AID 1102)
CONDITIONS: FGF10 binding, fluorescence 635 nm, higher = more signal
MEASURED_METRIC: composite z-score
Reply: number alone, nothing else.

Examples from the recorded data:
| MOLECULE | TGT | composite z-score |
| --- | --- | --- |
| [N-]=[N+]=NCc1ccccc1[C@H]1OC(c2ccc(OCCCO)cc2)=N[C@@]1(CCS(=O)(=O)c1ccccc1)C(=O)N1CCOCC1 | Fibroblast growth factor 10 (Homo sapiens) (UniProt O15520) | 1.17 |
| COCCCNC(=O)[C@@]1(CCC(=O)OC(C)(C)C)N=C(c2ccc(OCCCO)cc2)O[C@H]1c1ccccc1CN=[N+]=[N-] | Fibroblast growth factor 10 (Homo sapiens) (UniProt O15520) | 1.56 |
| O=C1OCC=C[C@H]2OC34C=CCN(c5ccc6ccccc6c5)C(=O)[C@H]3N(CCCO)C(=O)[C@@H]4[C@@H]12 (some centres undefined) | Fibroblast growth factor 10 (Homo sapiens) (UniProt O15520) | -0.709 |

--- query ---
Input: Which value of composite z-score has been reported for COc1cc(CO)ccc1OC(C)=O in the records?
Output: 0.171
